- Tested on: Escherichia coli
- experiment-notes: Compound is evaluated for the inhibition of bacterial growth (Escherichia coli ATCC 9637) in the liquid medium at 1 mmol of amino acid
- Assay type: functional
attribute-measured: Inhibition
Quote the value and follow it with the unit of measurement.

Past entries and their recorded results:
compound	test-system	Inhibition
C/C(=C/C(N)C(=O)O)CC(N)C(=O)O (stereo not given)	Escherichia coli	0%
C=C(CC(N)C(=O)O)CC(N)C(=O)O (stereo in doubt; 4)	Escherichia coli	90%
NC(/C=C/CC(N)C(=O)O)C(=O)O (stereo not given)	Escherichia coli	0%
C/C(=C\C(N)C(=O)O)CC(N)C(=O)O (stereo not given)	Escherichia coli	0%

As a next step, examine the compound that follows.
Entry CC(N)(CCCC(N)C(=O)O)C(=O)O (stereo not given) ; Inhibition = 38%

###

- Test system: Citrobacter freundii
- experiment-notes: Minimum inhibitory concentration compared to D-cycloserine, against Citrobacter freundii 55.13
- Format: functional
attribute-measured: MIC (µg/mL)
Numbers only, in µg/mL.

molecule	MIC / µg/mL
C=C(C[C@@H](N)C(=O)O)C[C@H](N)C(=O)O	32

I have 3 molecules here; please give me MIC for each one.
1. N[C@@H]1CONC1=O [CYCLOSERINE]
2. C=C(C[C@@H](N)C(=O)O)C[C@@H](N)C(=O)O.C=C(C[C@H](N)C(=O)O)C[C@H](N)C(=O)O
3. C=C(CC(N)C(=O)O)CC(N)C(=O)O (stereo in doubt; 4)

1. 2
2. 8
3. 16
